// reported MAVE (Maximum Acceptable Viability Exposure) per item
System: human iPSC-CM (iCell Cardiomyocytes)
Method: Dose-response cell viability (CellTiter-Fluor) in iPSC-derived cardiomyocytes, maximum acceptable viability exposure
Type: cell-based
Experimental setup: human
Entry rule: numbers only, all in µM.

Compound	Quantitative readout
O=C(O)CCCC[C@@H]1SC[C@@H]2NC(=O)N[C@@H]21	100
OC[C@@H](O)[C@@H](O)[C@H](O)[C@@H](O)CO	100
CCCCCNC(=N)N/N=C/c1c[nH]c2ccc(OC)cc12	3
COc1cccc2c1C(=O)c1c(O)c3c(c(O)c1C2=O)C[C@@](O)(C(C)=O)C[C@@H]3O[C@H]1C[C@H](N)[C@H](O)[C@H](C)O1	0.1

Could you now consider this next compound?
Q: Looking for the measured MAVE (Maximum Acceptable Viability Exposure) of `O=c1[nH]cc(F)c(=O)[nH]1` , can you help?
A: 100
